molecular target: ALK (Homo sapiens, UniProt Q9UM73); construct: host or cells: baculovirus expression system; assay: ALK Kinase Assay (ELISA/TRF, PLC-γ substrate); format: biochemical; details: ALK kinase inhibition, 1 μM ATP; read-out: ALK Potency
Sequence (Q9UM73 19-1620): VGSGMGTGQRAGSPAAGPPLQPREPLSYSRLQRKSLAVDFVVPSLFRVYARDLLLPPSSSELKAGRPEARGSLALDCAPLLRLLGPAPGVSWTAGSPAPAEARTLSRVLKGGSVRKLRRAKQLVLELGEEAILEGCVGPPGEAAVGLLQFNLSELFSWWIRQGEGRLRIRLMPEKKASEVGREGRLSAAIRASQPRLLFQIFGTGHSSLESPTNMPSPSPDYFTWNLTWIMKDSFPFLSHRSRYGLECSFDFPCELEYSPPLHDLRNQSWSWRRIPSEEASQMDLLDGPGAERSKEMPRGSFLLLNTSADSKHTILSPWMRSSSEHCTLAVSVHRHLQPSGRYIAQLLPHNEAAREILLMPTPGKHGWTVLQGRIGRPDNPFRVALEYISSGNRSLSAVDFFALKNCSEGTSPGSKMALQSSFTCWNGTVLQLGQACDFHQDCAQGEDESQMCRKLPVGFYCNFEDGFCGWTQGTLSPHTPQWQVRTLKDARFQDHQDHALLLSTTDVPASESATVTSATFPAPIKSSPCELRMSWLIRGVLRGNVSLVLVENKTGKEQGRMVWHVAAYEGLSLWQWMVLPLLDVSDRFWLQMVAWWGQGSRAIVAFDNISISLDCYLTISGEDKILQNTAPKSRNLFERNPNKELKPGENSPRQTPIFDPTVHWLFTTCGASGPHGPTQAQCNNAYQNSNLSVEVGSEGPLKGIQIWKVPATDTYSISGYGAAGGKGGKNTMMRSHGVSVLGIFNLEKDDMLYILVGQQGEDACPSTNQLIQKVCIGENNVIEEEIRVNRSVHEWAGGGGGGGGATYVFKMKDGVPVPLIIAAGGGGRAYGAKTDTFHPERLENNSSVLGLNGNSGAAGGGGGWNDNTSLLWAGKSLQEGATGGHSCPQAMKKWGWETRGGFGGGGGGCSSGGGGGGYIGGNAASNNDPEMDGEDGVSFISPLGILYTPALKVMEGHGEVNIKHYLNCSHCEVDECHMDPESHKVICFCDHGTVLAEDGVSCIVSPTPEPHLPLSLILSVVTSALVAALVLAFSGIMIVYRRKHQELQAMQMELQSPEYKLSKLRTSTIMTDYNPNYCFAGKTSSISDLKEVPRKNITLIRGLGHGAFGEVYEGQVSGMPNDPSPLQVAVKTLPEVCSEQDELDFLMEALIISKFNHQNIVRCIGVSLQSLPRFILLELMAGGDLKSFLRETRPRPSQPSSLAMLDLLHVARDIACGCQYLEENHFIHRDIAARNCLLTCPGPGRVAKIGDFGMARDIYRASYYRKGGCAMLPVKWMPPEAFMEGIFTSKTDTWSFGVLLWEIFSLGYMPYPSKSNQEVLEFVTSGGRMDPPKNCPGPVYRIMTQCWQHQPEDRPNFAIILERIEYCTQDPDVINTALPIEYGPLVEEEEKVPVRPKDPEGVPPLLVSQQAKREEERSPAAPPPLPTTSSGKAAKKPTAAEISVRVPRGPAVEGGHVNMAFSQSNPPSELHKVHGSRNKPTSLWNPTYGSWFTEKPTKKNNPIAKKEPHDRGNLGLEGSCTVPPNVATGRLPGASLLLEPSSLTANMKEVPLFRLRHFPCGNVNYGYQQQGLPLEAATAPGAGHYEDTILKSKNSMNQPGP
pIC50: −log10 of the molar value.
ENDPOINT_LABEL: pIC50

Answered examples (2):
COc1cc(C2CCN(C[C@H](O)CO)CC2)ccc1Nc1ncc2ccc(-c3ccccc3OC)n2n1; > 7.00
COc1cc([C@@]2(O)CCN(CCF)C[C@@H]2O)ccc1Nc1ncc2ccc(-c3ccccc3OC)n2n1 (racemic); > 7.00

Note: attention shifts to another entry.
response.value for `CS(=O)(=O)c1cccc(-c2ccc3cnc(Nc4ccc(C5CCNCC5)nc4)nn23)c1` (field: pIC50) = 6.00 to 7.00
